System: CEM cells HIV-1 protection, formazan growth assay
protocol_description: NCI AIDS Antiviral Assay
condition_set: measured here: growth of uninfected CEM cells
measured_quantity: log10 IC50 (log10 of the value in µM)
Plainly stated, the numbers are log10 of IC50 given in µM.

// solved cases for log10 IC50 follow
compound	assay_target	log10 IC50
O=c1c(SCc2ccc(Br)cc2)c(SCc2ccc(Br)cc2)cnn1-c1ccccc1	CEM cells HIV-1 protection, formazan growth assay	0.81
O=C(CC(C(=O)c1ccsc1)c1cccs1)c1ccsc1 (centres undefined)	CEM cells HIV-1 protection, formazan growth assay	1.19
CCOC(=O)c1c[nH]c(C(=O)OCC)c1-c1cccn1-c1ccccc1	CEM cells HIV-1 protection, formazan growth assay	1.39
COc1ccc(-c2c(C3=NCCCN3)nnn2-c2ccc(Cl)cc2)cc1	CEM cells HIV-1 protection, formazan growth assay	1.93

Please look at the following compound next.
Lab note: measured log10 IC50 of O=C(O)c1cc(N=Nc2ccc(/C=C/c3ccc(N=Nc4ccc(O)c(C(=O)O)c4)cc3S(=O)(=O)O)c(S(=O)(=O)O)c2)ccc1O was 1.56
